I'd be grateful if you could share measured TGI for these entries.
- System: MDA-MB-468 breast
- test-method-notes: NCI tumour cell line growth inhibition, 48 h
Please respond with the number in µM and leave the unit unwritten.

Per the record, "FC(F)(F)c1cc2c(Cl)ncnc2n1CCC1CCOCC1" has TGI of 3.44

Just so you know, measured TGI for "CN(C)c1cccc2c(S(=O)(=O)N[C@H]3CC[C@H]4[C@@H]5CCc6cc(O)ccc6[C@H]5CC[C@]34C)cccc12" came out at 9.71

"O=C(NNc1nc(Cl)nc(N2CCN(C(c3ccccc3)c3ccccc3)CC2)n1)c1ccccc1" yielded TGI of 6.03

Entry "COc1ccc2c(c1)[nH]c(=O)c1c3cc(C)c(C)cc3cn21" , TGI reported as 1.59

====

- System: SNB-19 CNS
- test-method-notes: NCI tumour cell line growth inhibition, 48 h
Kindly return label 1 if reported TGI is no lower than 20 µM; return label 0 if it is lower.

Prompt: Entry "CN(CCO)c1oc(-c2ccccc2)nc1[P+](c1ccccc1)(c1ccccc1)c1ccccc1" : is its TGI no less than 20 µM?
Response: label 0

Prompt: Please indicate if the recorded TGI for "Cc1noc2c(Cc3ccccc3)nn(CC(=O)N/N=C/c3ccc(F)cc3)c(=O)c12" meets or exceeds 20 µM.
Response: label 1

Prompt: Kindly determine if TGI recorded for "O=C(Nc1cccc(-c2cn(-c3ccc4oc(=O)ccc4c3)nn2)c1)Nc1cc(C(F)(F)F)cc(C(F)(F)F)c1" is above or exactly 20 µM.
Response: label 1

Prompt: TGI >= 20 µM for "COc1cc(OC)c(S(=O)(=O)N(CCCl)CCCl)cc1C(=O)/C=C/c1cc(OC)c(OC)c(OC)c1" ?
Response: label 0

Prompt: Could you tell me if the measured TGI of "FC(F)(F)c1cc2c(Cl)ncnc2n1CCC1CCOCC1" reaches 20 µM or more?
Response: label 0

====

- Tested on: MDA-MB-468 breast
- test-method-notes: NCI tumour cell line growth inhibition, 48 h
value-kind: log10(TGI) (log10 of the value in µM)
Kindly note that the scale is log10 and the underlying TGI is in µM.

Measured log10(TGI), CNC(=O)c1cc(OC2CCC(NC(=O)Nc3ccc(Cl)c(C(F)(F)F)c3)CC2)ccn1 (stereo not given) : 1.16

Consider "CC(=O)O[C@H]1CC[C@@]2(C)C(=CC[C@@H]3[C@@H]2CC[C@]2(C)C(c4cccnc4)=CC[C@@H]32)C1" . Its measured log10(TGI) is 1.24

Short answer for "COCCOc1ccc2ncc(C#Cc3cncc(C(=O)Nc4ccc(CN5CCN(C)CC5)c(C(F)(F)F)c4)c3)n2n1" : log10(TGI) was 0.45

# log10(TGI) of "Cc1ccc(-[n+]2c3cc(N)c(C)cc3nc3cc(C)c(Nc4ccccc4)cc32)cc1" = -0.43

Entry "C=C1C(=O)O[C@H]2[C@H]1CC/C(Cn1cc(CNC(=O)Cc3cn(C(=O)c4ccc(Cl)cc4)c4ccc(OC)cc34)nn1)=C\CC[C@@]1(C)O[C@@H]21" — recorded log10(TGI) = 0.47

Briefly, log10(TGI) measured for "O=C(Nc1cccc(-c2cn(-c3ccc4oc(=O)ccc4c3)nn2)c1)Nc1cc(C(F)(F)F)cc(C(F)(F)F)c1" : 0.94
